Consider the following molecules; for each one, report its pKi.
- subject.of.test: 5-hydroxytryptamine receptor 1A (Rattus norvegicus)
- protocol: Evaluated for binding affinity towards 5-hydroxytryptamine 1A receptor in rat brain
- Format: tissue-based
Give bare numbers, as −log10 of the molar value.

Batch request: pKi for each of the following molecules.
1. COc1ccccc1N1CCNCC1
2. c1ccc2c(N3CCNCC3)cccc2c1

A.
7.17
7.96

----------
- subject.of.test: 5-hydroxytryptamine receptor 1A (Rattus norvegicus)
- protocol: Hill coefficient in rat brain 5-hydroxytryptamine 1A assay
- Type: tissue-based
property: Hill coefficient
Numbers only.

Some solved entries appear below for comparison.
>>> measured_value("O=C1c2ccccc2C(=O)N1CCCCN1CCN(c2ncccn2)CC1")
1.03
>>> measured_value("c1ccc(C2CCNCC2)cc1")
0.97
>>> measured_value("O=C1c2ccccc2C(=O)N1CCCCCN1CCN(c2ccccc2)CC1")
0.91
>>> measured_value("c1ccc(N2CCNCC2)cc1")
0.95
>>> measured_value("COc1ccccc1N1CCN(CCCCNC(=O)c2ccccc2)CC1")
0.88

Batch request: Hill coefficient for each of the following molecules.
1. O=C1c2ccccc2C(=O)N1CCCCN1CCN(c2cccc3ccccc23)CC1
2. O=C(NCCCCN1CCN(c2ncccn2)CC1)c1ccccc1
3. O=C1c2ccccc2C(=O)N1CCCN1CCN(c2ccccc2)CC1
4. CC(=O)NCCCCN1CCN(c2ccccc2)CC1
5. COc1ccccc1N1CCNCC1
6. c1ccc2c(N3CCNCC3)cccc2c1
7. CC1(C)CC(=O)N(CCCCN2CCN(c3ncccn3)CC2)C(=O)C1

A.
[1.16, 0.79, 0.99, 0.99, 0.88, 0.85, 1]

----------
- subject.of.test: 5-hydroxytryptamine receptor 1A (Rattus norvegicus, UniProt P19327)
- Sequence (P19327 whole entry): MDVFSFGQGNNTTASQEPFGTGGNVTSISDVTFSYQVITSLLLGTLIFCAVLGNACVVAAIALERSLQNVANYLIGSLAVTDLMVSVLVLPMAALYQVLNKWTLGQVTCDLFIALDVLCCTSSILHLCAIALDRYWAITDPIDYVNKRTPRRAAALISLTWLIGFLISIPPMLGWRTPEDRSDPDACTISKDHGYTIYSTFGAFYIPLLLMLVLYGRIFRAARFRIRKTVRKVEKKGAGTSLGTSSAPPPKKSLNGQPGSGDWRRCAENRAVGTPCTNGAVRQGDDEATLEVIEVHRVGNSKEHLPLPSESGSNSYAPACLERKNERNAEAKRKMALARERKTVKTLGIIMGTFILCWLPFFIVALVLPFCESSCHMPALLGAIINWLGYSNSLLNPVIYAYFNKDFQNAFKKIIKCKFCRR
- protocol: Binding affinity towards 5-hydroxytryptamine 1A receptor in rat brain
- Format: tissue-based
property: Ki (nM)
Numbers only, in nM.

Q. Give Ki for the following compound: O=C(NCCCCN1CCN(c2ccccc2)CC1)c1ccccc1
A. 11

----------
- subject.of.test: 5-hydroxytryptamine receptor 1A (Rattus norvegicus)
- protocol: Evaluated for binding affinity towards 5-hydroxytryptamine 1A receptor in rat brain
- Format: tissue-based
Consider the following compounds; for each one, report its pKi.
Numbers only, as −log10 of the molar value.

Some solved entries appear below for comparison.
>>> measured_value("CC(=O)NCCCCN1CCN(c2ccccc2)CC1")
6.60
>>> measured_value("O=C1c2ccccc2C(=O)N1CCCCN1CCN(c2ccccc2)CC1")
8.00
>>> measured_value("c1ccc(C2CCNCC2)cc1")
5.82

Batch request: pKi for each of the following compounds.
1. COc1ccc(Cl)cc1N1CCNCC1
2. O=C(NCCCCN1CCN(c2ncccn2)CC1)c1ccccc1
3. c1ccc2cc(N3CCNCC3)ccc2c1
4. Clc1cccc(N2CCNCC2)c1 [CHLOROPHENYLPIPERAZINE]
5. COc1ccccc1N1CCN(CCCCNC(=O)c2ccccc2)CC1
6. FC(F)(F)c1cccc(N2CCNCC2)c1

A.
1. 6.06
2. 7.22
3. 5.54
4. 6.89
5. 8.70
6. 6.76

Batch request: pKi for each of the following compounds.
1. O=C1c2ccccc2C(=O)N1CCCCN1CCN(c2ncccn2)CC1
2. c1cnc(N2CCNCC2)nc1 [2-PIPERAZIN-1-YL-PYRIMIDINE]

A.
1: 7.44; 2: 5.85

Batch request: pKi for each of the following compounds.
1. O=C1c2ccccc2C(=O)N1CCCN1CCN(c2ccccc2)CC1
2. c1ccc(N2CCNCC2)cc1 [PHENYLPIPERAZINE]
3. O=C1c2ccccc2C(=O)N1CCCCN1CCN(c2cccc3ccccc23)CC1
4. O=C1c2ccccc2C(=O)N1CCCCCN1CCN(c2ccccc2)CC1

A.
1: 6.70; 2: 6.42; 3: 9.00; 4: 8.07

----------
- subject.of.test: UniProt P19327
- Sequence (whole entry): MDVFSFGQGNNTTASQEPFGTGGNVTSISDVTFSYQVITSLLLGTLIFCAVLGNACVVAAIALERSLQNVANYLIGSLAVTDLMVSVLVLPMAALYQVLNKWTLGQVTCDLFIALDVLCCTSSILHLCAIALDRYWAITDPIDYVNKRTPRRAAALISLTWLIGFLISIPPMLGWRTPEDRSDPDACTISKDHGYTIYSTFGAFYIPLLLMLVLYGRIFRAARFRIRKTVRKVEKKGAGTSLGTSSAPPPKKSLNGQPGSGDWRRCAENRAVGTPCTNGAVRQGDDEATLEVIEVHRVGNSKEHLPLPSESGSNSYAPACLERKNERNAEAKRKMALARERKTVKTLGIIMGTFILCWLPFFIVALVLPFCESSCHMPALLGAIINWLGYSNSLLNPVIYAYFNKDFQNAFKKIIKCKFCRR
- protocol: Hill coefficient in rat brain 5-hydroxytryptamine 1A assay
- Type: tissue-based
property: Hill coefficient

Some solved entries appear below for comparison.
>>> measured_value("O=C(NCCCCN1CCN(c2ccccc2)CC1)c1ccccc1")
0.82
>>> measured_value("O=C1c2ccccc2C(=O)N1CCCCN1CCN(c2ccccc2)CC1")
0.99
>>> measured_value("COc1ccc(Cl)cc1N1CCNCC1")
0.97

Batch request: Hill coefficient for each of the following molecules.
1. FC(F)(F)c1cccc(N2CCNCC2)c1
2. Clc1cccc(N2CCNCC2)c1
3. c1cnc(N2CCNCC2)nc1
4. c1ccc2cc(N3CCNCC3)ccc2c1

A.
1. 0.97
2. 0.91
3. 0.95
4. 1.02
